- System: NF-κB activation
- Method Description: Inhibitory activity against NF-κB activation, luciferase reporter assay under TNF-α stimulation
- Format: cell-based, human
- Condition Notes: Drug Concentration 1 μg/mL; HepG2 cells, TNF-α 40 ng/ml, 4 hours
Reported Endpoint: Inhibitory Ratio of NF-κ B Activation(%)

1. O=C(Nc1cc(C(F)(F)F)cc(C(F)(F)F)c1)c1cc(Cl)ccc1OP(=O)([O-])O.[Na+] [Compound 52]: 76.3
2. O=C(CNC(=O)OCc1ccccc1)Oc1ccc(Cl)cc1C(=O)Nc1cc(C(F)(F)F)cc(C(F)(F)F)c1 [Compound 21]: 96.7
3. CC(C)(C)OC(=O)CC(=O)Oc1ccc(Cl)cc1C(=O)Nc1cc(C(F)(F)F)cc(C(F)(F)F)c1 [Compound 17]: 97.0
4. O=C(Nc1cc(C(F)(F)F)ccc1C(F)(F)F)c1ccccc1OC(=O)N1CCOCC1 [Compound 132]: 32.3
5. N[C@@H](CCC(=O)O)C(=O)Oc1ccc(Cl)cc1C(=O)Nc1cc(C(F)(F)F)cc(C(F)(F)F)c1 [Compound 32]: 98.0
6. CC(C)Oc1ccc(Cl)cc1C(=O)Nc1cc(C(F)(F)F)cc(C(F)(F)F)c1 [Compound 96]: 54.1
7. CC(C)C[C@H](NC(=O)[C@@H](N)CC(=O)O)C(=O)Oc1ccc(Cl)cc1C(=O)Nc1cc(C(F)(F)F)cc(C(F)(F)F)c1.Cl [Compound 38]: 97.8
8. O=C(COc1ccc(Cl)cc1)Oc1ccc(Cl)cc1C(=O)Nc1cc(C(F)(F)F)cc(C(F)(F)F)c1 [Compound 13]: 96.6
9. CC(C)C[C@H](NC(=O)[C@@H](N)CCCCN)C(=O)Oc1ccc(Cl)cc1C(=O)Nc1cc(C(F)(F)F)cc(C(F)(F)F)c1.Cl.Cl [Compound 40]: 96.2
10. O=C(NCc1ccccc1)Oc1ccc(Cl)cc1C(=O)Nc1cc(C(F)(F)F)cc(C(F)(F)F)c1 [Compound 55]: 97.1
11. O=C(Nc1cc(C(F)(F)F)cc(C(F)(F)F)c1)c1cc(Cl)ccc1OS(=O)(=O)O [Compound 49]: 80.1
12. COCC(=O)Oc1ccc(Cl)cc1C(=O)Nc1cc(C(F)(F)F)cc(C(F)(F)F)c1 [Compound 10]: 95.3
13. Cl.N[C@@H](Cc1ccccc1)C(=O)Oc1ccc(Cl)cc1C(=O)Nc1cc(C(F)(F)F)cc(C(F)(F)F)c1 [Compound 29]: 90.2
14. O=C(CNC(=O)Oc1ccc(Cl)cc1C(=O)Nc1cc(C(F)(F)F)cc(C(F)(F)F)c1)N[C@@H](Cc1ccccc1)C(=O)O [Compound 62]: 96.8
15. CC(C)(C)c1ccc(OP(=O)([O-])O)c(C(=O)Nc2cc(C(F)(F)F)cc(C(F)(F)F)c2)c1.[Na+] [Compound 139]: 64.3
16. O=C(CCC(=O)N1CCCCC1)Oc1ccc(Cl)cc1C(=O)Nc1cc(C(F)(F)F)cc(C(F)(F)F)c1 [Compound 19]: 97.9
17. CC(C)NC(=O)Oc1ccc(Cl)cc1C(=O)Nc1cc(C(F)(F)F)cc(C(F)(F)F)c1 [Compound 54]: 96.0
18. CC(C)S(=O)(=O)Oc1ccc(Cl)cc1C(=O)Nc1cc(C(F)(F)F)cc(C(F)(F)F)c1 [Compound 46]: 89.5
19. O=C(Nc1cc(C(F)(F)F)cc(C(F)(F)F)c1)c1cc(Cl)ccc1OCCO [Compound 107]: 47.4
20. CN1CCN(C(=O)Oc2ccc(Cl)cc2C(=O)Nc2cc(C(F)(F)F)cc(C(F)(F)F)c2)CC1 [Compound 72]: 39.4
21. CC(C)C[C@H](NC(=O)[C@@H](N)Cc1ccccc1)C(=O)Oc1ccc(Cl)cc1C(=O)Nc1cc(C(F)(F)F)cc(C(F)(F)F)c1.Cl [Compound 36]: 97.8
22. O=C(Oc1ccc(Cl)cc1C(=O)Nc1cc(C(F)(F)F)cc(C(F)(F)F)c1)c1ccncc1 [Compound 7]: 93.9
23. COC(=O)[C@H](COC(C)(C)C)NC(=O)Oc1ccc(Cl)cc1C(=O)Nc1cc(C(F)(F)F)cc(C(F)(F)F)c1 [Compound 60]: 97.7
24. O=C(COc1ccccc1)Oc1ccc(Cl)cc1C(=O)Nc1cc(C(F)(F)F)cc(C(F)(F)F)c1 [Compound 12]: 95.5
25. CC(C)(C)OC(=O)NCCCC[C@H](NC(=O)CNC(=O)Oc1ccc(Cl)cc1C(=O)Nc1cc(C(F)(F)F)cc(C(F)(F)F)c1)C(=O)OC(C)(C)C [Compound 65]: 95.8
26. CC(C)(C)C(=O)OCOc1ccc(Cl)cc1C(=O)Nc1cc(C(F)(F)F)cc(C(F)(F)F)c1 [Compound 99]: 92.3
